Measured pIC50 on PARP1 (Homo sapiens (Human)) follows.
Sequence (P09874 whole entry): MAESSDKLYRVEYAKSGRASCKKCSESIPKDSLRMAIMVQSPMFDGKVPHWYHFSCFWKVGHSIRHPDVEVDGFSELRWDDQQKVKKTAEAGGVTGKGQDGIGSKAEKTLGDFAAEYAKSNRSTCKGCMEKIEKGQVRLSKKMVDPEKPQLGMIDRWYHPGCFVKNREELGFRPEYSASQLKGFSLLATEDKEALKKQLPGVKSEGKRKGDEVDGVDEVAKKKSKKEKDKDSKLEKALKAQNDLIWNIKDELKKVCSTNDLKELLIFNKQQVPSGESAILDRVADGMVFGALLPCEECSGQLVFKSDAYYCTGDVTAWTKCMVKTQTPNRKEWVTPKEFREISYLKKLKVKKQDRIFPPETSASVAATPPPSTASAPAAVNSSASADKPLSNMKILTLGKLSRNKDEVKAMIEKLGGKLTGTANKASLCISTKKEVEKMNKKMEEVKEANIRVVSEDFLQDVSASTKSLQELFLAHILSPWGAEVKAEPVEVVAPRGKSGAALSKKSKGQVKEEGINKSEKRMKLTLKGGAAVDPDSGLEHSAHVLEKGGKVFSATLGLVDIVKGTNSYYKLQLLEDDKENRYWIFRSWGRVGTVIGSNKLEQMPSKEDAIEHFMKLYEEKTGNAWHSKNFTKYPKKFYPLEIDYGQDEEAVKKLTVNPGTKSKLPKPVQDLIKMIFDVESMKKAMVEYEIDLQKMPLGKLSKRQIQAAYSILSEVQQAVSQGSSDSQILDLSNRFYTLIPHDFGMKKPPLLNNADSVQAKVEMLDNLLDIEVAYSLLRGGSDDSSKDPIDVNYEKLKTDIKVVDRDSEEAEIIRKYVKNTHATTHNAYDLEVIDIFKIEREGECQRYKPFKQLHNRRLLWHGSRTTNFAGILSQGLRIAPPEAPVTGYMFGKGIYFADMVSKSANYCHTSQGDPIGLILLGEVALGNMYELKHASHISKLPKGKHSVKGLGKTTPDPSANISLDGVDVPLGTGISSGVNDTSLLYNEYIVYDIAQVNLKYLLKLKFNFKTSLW
Please treat pIC50 as minus the base-10 logarithm of the molar concentration.

| molecule | pIC50 |
| --- | --- |
| O=C(CC[C@H]1CCCN1c1cc(C(F)(F)F)c(=O)[nH]n1)N1CCN(c2ncc(C(F)(F)F)cn2)CC1 [Compound 18] | 8.60 |
| C[C@@H]1C[C@@H](CCC(=O)N2CCN(c3ncc(C(F)(F)F)cn3)CC2)N(c2cc(C(F)(F)F)c(=O)[nH]n2)C1 [Compound 29] | 7.74 |
| CO[C@H]1C[C@@H](CCC(=O)N2CCN(c3ncc(C(F)(F)F)cn3)CC2)N(c2cc(C(F)(F)F)c(=O)[nH]n2)C1 [Compound 34] | 7.87 |

// switching to the query molecule
Answer with the recorded pIC50 of O=C(CC[C@@H]1C[C@H](F)CN1c1cc(C(F)(F)F)c(=O)[nH]n1)N1CCN(c2ncc(C(F)(F)F)cn2)CC1 [Compound 43] only.
8.40

###

Some compounds, each annotated with its measured CLint scaled at 1 μM.
- run_description: Metabolic stability in human liver microsomes
- Assay type: in vitro ADME
- run_parameters: pH 7.4, 1.00 μM compound, 0.5 mg/mL protein, read-out: intrinsic clearance, Clint
Give the value, in units of mL/min/kg, as a plain number.

Example results:
| compound | meas_value |
| --- | --- |
| C[C@@H](COCCC(=O)N1CCN(c2ncc(C(F)(F)F)cn2)CC1)Nc1cn[nH]c(=O)c1C(F)(F)F [RBN-2397, reference compound] | 88 |
| O=C(CC[C@@H]1C[C@@H](F)CN1c1cc(C(F)(F)F)c(=O)[nH]n1)N1CCN(c2ncc(C(F)(F)F)cn2)CC1 [Compound 20] | 46.6 |

Next compound, please.
Look up and report measured CLint scaled at 1 μM for this entry: O=C(CC[C@@H]1CCCN1c1cc(C(F)(F)F)c(=O)[nH]n1)N1CCN(c2ncc(C(F)(F)F)cn2)CC1 [Compound 6]
64.6

###

- run_description: Pharmacokinetic properties in SD rats after single intravenous injection and oral administration
- Type: in vivo
- run_parameters: rat, plasma; Oral gavage, standardized to a 1 mg/kg dose, SD male rats
Please mark Yes if the recorded AUC(0-inf) is equal to or greater than 100 ng·h/mL, and No if it falls below.

Past entries and their recorded results:
| molecule | qualitative_label |
| --- | --- |
| O=C(CC[C@@H]1CCCN1c1cc(C(F)(F)F)c(=O)[nH]n1)N1CCN(c2ncc(C(F)(F)F)cn2)CC1 | Yes |
| O=C(CC[C@@H]1C[C@@H](Oc2ccccc2)CN1c1cc(C(F)(F)F)c(=O)[nH]n1)N1CCN(c2ncc(C(F)(F)F)cn2)CC1 | Yes |
| O=C(CC[C@@H]1C[C@H](Oc2ccccc2)CN1c1cc(C(F)(F)F)c(=O)[nH]n1)N1CCN(c2ncc(C(F)(F)F)cn2)CC1 | No |

Determine whether measured AUC(0-inf) meets or exceeds 100 ng·h/mL for `O=C(COC[C@@H]1CCCN1c1cc(C(F)(F)F)c(=O)[nH]n1)N1CCN(c2ncc(C(F)(F)F)cn2)CC1`
No

Assess whether reported AUC(0-inf) for `O=C(CC[C@@H]1C[C@@H](F)CN1c1cc(C(F)(F)F)c(=O)[nH]n1)N1CCN(c2ncc(C(F)(F)F)cn2)CC1` sits at 100 ng·h/mL or higher.
No

Could you please find out whether C[C@@H](COCCC(=O)N1CCN(c2ncc(C(F)(F)F)cn2)CC1)Nc1cn[nH]c(=O)c1C(F)(F)F [RBN-2397, reference compound] has AUC(0-inf) that meets 100 ng·h/mL or exceeds it?
No
